The values you see were collected from a melting point compilation (Tetko et al.; mined from patent text by program, amines drawn as free bases though some values may be those of a salt).

Experimental endpoint: melting point

Examples from the recorded data:
| Molecule | Experimental endpoint | Reading |
| --- | --- | --- |
| Cc1c(Cc2ccc(C(C)C)cc2)c2c(c(C)c1NC(=O)CC(C)(C)C)C(O)C(C)(C)O2 (configuration not stated) | melting point | 244 to 245 °C |
| CCCc1c(OCCCCCCc2ccc(C(C)C)c(OC)c2OC)ccc(C(=O)O)c1O | melting point | 106 to 108 °C |
| C=Cc1ccc2nnn(OS(=O)(=O)c3ccc(C)cc3)c2c1 | melting point | 90 to 91 °C |
| O=C(CCCl)c1cc2c(s1)CCCC2 | melting point | 51 to 53 °C |
| CC(C)(C)c1cc(CCc2ccccc2NC(=O)Nc2ccccc2)cc(C(C)(C)C)c1O | melting point | 207 °C |

Report melting point for COc1ccc(-n2nc(Sc3ccc4ccccc4c3)c(C)c(C#N)c2=O)cc1 please. 169 to 170 °C

Moving on to the next molecule: Cc1ccc(C2CCN(Cc3ccc(COc4cccc5c4CN(C4CCC(=O)NC4=O)C5=O)cc3)CC2)cc1 (configuration not stated) 208 to 210 °C

Moving on to the next molecule: CCOC(=O)/C=C/C=C/c1ccc(OCc2nc(-c3ccccc3)oc2C)cc1 137 to 138 °C

Moving on to the next molecule: Cc1ccnc([N+](=O)[O-])c1O 87 to 88 °C
